The following compounds are listed with their measured EC50 values.
target: F508delCFTR (Homo sapiens, UniProt P13569, DEL508-508); construct: expressed in transfected cells; host or cells: CFBE41o- (human lung derived epithelial cell line), doxycycline-inducible expression; assay: Cell Surface Expression-Horse Radish Peroxidase (CSE-HRP) assay; format: cell-based; conditions: CFBE41o-F508delCFTR-HRP cells; test compound without co-corrector; 18-24 hours at 33° C.; read-out: EC50 (without co-corrector)
Sequence (P13569 with tags, fused parts or gaps DEL508-508): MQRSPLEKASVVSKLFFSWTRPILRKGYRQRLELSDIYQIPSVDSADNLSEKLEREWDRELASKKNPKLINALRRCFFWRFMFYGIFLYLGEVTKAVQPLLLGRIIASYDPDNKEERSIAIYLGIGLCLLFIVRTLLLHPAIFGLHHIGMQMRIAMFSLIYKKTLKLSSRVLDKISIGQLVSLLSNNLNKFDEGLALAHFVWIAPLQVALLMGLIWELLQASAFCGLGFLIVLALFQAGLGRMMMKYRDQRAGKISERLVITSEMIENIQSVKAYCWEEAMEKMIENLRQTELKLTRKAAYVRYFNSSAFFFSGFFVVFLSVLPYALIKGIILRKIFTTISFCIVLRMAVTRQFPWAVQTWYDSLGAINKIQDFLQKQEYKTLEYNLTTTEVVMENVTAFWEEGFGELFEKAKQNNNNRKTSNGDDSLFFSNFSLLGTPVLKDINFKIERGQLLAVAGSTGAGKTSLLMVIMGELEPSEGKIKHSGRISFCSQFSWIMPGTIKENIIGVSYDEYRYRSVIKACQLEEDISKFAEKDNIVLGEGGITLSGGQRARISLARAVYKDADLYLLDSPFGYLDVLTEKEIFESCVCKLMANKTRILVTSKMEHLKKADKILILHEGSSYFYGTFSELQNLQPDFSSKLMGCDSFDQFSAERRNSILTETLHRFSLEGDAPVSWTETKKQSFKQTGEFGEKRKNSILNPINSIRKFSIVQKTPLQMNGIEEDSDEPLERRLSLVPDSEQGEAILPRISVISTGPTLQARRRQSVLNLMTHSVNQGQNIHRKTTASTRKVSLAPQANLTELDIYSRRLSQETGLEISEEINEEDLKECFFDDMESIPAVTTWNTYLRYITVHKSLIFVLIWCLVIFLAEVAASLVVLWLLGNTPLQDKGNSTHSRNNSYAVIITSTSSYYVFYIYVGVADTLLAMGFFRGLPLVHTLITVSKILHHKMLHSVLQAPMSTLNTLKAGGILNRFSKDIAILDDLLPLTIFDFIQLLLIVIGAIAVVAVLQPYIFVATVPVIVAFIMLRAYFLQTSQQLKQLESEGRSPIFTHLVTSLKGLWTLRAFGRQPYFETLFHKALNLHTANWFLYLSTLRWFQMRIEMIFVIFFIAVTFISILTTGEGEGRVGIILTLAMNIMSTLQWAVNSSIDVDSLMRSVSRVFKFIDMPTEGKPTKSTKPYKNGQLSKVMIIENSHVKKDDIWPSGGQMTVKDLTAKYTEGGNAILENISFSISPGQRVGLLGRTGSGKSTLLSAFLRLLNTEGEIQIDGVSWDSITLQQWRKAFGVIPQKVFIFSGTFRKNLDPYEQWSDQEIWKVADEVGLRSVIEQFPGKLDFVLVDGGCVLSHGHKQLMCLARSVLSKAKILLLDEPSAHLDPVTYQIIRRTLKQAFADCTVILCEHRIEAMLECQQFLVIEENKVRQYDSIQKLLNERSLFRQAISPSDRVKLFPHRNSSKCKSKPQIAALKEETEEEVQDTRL

Field: example entries. Status: answers known.
compound	targetEntity	property	observedResult
CCc1ccccc1[C@H]1[C@@H](OCc2cc(C3CCC3)cnc2OC)[C@H](C(C)(C)C)[C@@H](C(=O)O)N1C(=O)[C@@H]1CCCCO1	F508delCFTR (Homo sapiens, UniProt P13569, DEL508-508)	EC50	1 to 10 µM
COc1ncc(C2CCC2)cc1CO[C@H]1[C@H](C(C)(C)C)[C@@H](C(=O)O)N(C(=O)OC(C)C)[C@H]1c1cccc(Cl)c1	F508delCFTR (Homo sapiens, UniProt P13569, DEL508-508)	EC50	< 1 µM
COc1cc(C(F)(F)F)ccc1CO[C@H]1[C@H](C(C)(C)C)[C@@H](C(=O)O)N(C(=O)[C@@H]2CCCCO2)[C@H]1c1ccccc1C	F508delCFTR (Homo sapiens, UniProt P13569, DEL508-508)	EC50	1 to 10 µM
COc1nc2c(C)ccc(C)c2cc1CO[C@H]1[C@H](C(C)(C)C)[C@@H](C(=O)O)N(C(=O)C2CCCCC2)[C@H]1c1cccnc1OC(C)C	F508delCFTR (Homo sapiens, UniProt P13569, DEL508-508)	EC50	1 to 10 µM

In the following, a different compound is considered.
Kindly note: F508delCFTR (Homo sapiens, UniProt P13569, DEL508-508), `COc1ccc(C(F)(F)F)cc1CO[C@@H]1[C@H](C(C)(C)C)[C@@H](C(=O)O)N(C(=O)OC(C)C)[C@H]1c1cccnc1OC(C)C` , EC50 value reported: > 10 µM

Taken from patent US10399940B2.
